- system: FGFR1 (human) (UniProt P11362)
- Sequence (P11362 whole entry, looked up): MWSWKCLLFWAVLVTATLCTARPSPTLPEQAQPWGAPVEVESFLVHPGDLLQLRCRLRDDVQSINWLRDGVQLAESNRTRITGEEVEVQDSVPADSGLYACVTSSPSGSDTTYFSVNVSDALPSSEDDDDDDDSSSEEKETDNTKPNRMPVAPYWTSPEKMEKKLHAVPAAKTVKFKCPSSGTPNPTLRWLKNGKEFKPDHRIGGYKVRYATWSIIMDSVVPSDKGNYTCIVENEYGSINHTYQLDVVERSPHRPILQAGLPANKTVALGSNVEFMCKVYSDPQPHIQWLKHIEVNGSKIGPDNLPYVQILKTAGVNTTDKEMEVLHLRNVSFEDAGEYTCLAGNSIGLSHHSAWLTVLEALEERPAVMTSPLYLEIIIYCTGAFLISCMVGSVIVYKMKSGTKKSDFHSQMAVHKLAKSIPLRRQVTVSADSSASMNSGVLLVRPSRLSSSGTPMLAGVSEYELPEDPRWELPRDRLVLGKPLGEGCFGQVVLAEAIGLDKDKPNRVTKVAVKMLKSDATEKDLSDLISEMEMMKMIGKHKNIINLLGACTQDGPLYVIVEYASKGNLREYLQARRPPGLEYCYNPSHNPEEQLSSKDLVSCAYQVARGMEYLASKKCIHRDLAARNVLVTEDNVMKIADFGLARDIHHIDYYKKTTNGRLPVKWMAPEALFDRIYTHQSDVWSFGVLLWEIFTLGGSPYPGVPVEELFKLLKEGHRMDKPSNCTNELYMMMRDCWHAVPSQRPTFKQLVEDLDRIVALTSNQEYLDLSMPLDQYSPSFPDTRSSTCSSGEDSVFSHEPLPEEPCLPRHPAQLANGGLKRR
- condition_context: compound 10.0 µM
Measured inhibition values are reported for all entries that follow.
Express your answer in %, writing the number without its unit.

Example results:
| compound | quantity_kind | recorded_value |
| --- | --- | --- |
| c1cc(-c2cnn3cc(-c4ccc(OCCN5CCCCC5)cc4)cnc23)ccn1 | inhibition | 21 |
| COc1cc2ncn(-c3cc(OCc4ccccc4C(F)(F)F)c(C(N)=O)s3)c2cc1OC | inhibition | 57 |
| NC1N[N](=Cc2coc3ccccc3c2=O)->[Cu]([Cl])([Cl])[SH]=1 | inhibition | 11 |
| O=c1cc(N2CCOCC2)oc2c(-c3ccccc3)cccc12 | inhibition | 0 |

// query // lookup inhibition for Cc1ccc(NC(=O)c2cccc(N(C)C)c2)cc1NC(=O)c1ccc(O)cc1
// result 0

// query // lookup inhibition for COc1cc(CC2C(=O)OC[C@@H]2Cc2ccc(OC)c(OC)c2)ccc1O (stereo partly specified)
// result 0

// query // lookup inhibition for CC(C)(C)n1nc(-c2cccc3ccccc23)c2c(N)ncnc21
// result 60

// query // lookup inhibition for NC(=O)c1sc(-c2ccsc2)cc1N
// result 0

// query // lookup inhibition for O=C1NC(=O)c2c1c1c3ccccc3n3c1c1c2c2ccccc2n1C1CCC3O1
// result 70

// query // lookup inhibition for O=C1NC(=O)c2c1c1c3ccccc3[nH]c1c1[nH]c3ccccc3c21
// result 44

// query // lookup inhibition for CC[C@@H](CO)Nc1nc(NCc2ccccc2)c2ncn(C(C)C)c2n1
// result 5

// query // lookup inhibition for COc1cc2c(Nc3ccc(NC(=O)c4ccccc4)cc3)ncnc2cc1OCCCN1CCOCC1
// result 15

// query // lookup inhibition for Cc1[nH]c(/C=C2\C(=O)Nc3ccc(S(=O)(=O)Cc4c(Cl)cccc4Cl)cc32)c(C)c1C(=O)N1CCC[C@@H]1CN1CCCC1
// result 23

// query // lookup inhibition for Cc1cc(F)c(Nc2ncnc3cc(OCc4ccccc4)ccc23)cc1O
// result 10

// query // lookup inhibition for O=C1NC(=O)C(c2ccccc2[N+](=O)[O-])=C1Nc1ccc(O)c(Cl)c1
// result 9

// query // lookup inhibition for C/C(O)=C(\C#N)C(=O)Nc1cc(Br)ccc1Br
// result 8

// query // lookup inhibition for O=C1Nc2cc(Br)ccc2/C1=C1/Nc2ccccc2/C1=N\O
// result 10

// query // lookup inhibition for CCN(CC)CCNC(=O)c1c(C)[nH]c(/C=C2\C(=O)Nc3ccc(F)cc32)c1C
// result 50

// query // lookup inhibition for Cc1cc2nc3c(=O)[nH]c(=O)nc-3n(C)c2cc1C=O
// result 22

// query // lookup inhibition for O=S(=O)(c1cccc2cnccc12)N1CCCNCC1
// result 4

// query // lookup inhibition for CN1CCC(Nc2ncc3ncnc(Nc4ccc(F)c(Cl)c4)c3n2)CC1
// result 3
